Each recorded value in this set is attributed to PubChem BioAssay AID504329.

# procedure text: H1N1 influenza NS1A inhibitors, functional cell based assay (AID 504329)
# test settings: percent inhibition, at 12.5 µM, stronger effect = higher value
The campaign covered roughly 340,000 compounds. About 1,000 (0.29%) were called active. A selection follows. Potency and affinity values are given separately.
quantity: inhibition (%)
The reply should be a number in %, with the unit left off.

{"columns": ["compound", "measure unit", "test value"],
 "data": [
  ["CCOc1cccc(-c2c(C(=O)N/N=C(\\C)c3cccnc3)nnn2-c2nonc2N)c1", "%", -0.26],
  ["Cc1ccc2ccc3ccc(C)nc3c2n1", "%", -7.29],
  ["CCOC(=O)C1=C(C)C(c2ccccc2O)NC(=O)N1 (centres undefined)", "%", -4.1]
]}

Now examine the next entry.
Record summary for Clc1ccc2ccc3cccnc3c2n1 : reported inhibition = -25.7
